system: U-266 (Plasma Cell Myeloma); assay: combination Emax (second highest fraction inhibited in the dose matrix, 72 h); higher = more inhibition; extreme values may be limits of the assay
This listing pairs molecules with measured combination Emax.

Cc1cc2ncnn2cc1Nc1ncc2c(n1)n(C1CCOCC1)c(=O)n2C [AZD7648] + CN(C)CCCOc1ccc(-c2ccc3ncc4c(c3c2)n(C2CCOCC2)c(=O)n4C)cn1 [AZD0156] (first compound max 10 µM, 7x7, partner max 1 µM) : 0.226

Continue with the next molecule.
# lookup: combination Emax of Cc1cc2ncnn2cc1Nc1ncc2c(n1)n(C1CCOCC1)c(=O)n2C [AZD7648] + CCN(CCO)CCCOc1ccc2c(Nc3cc(CC(=O)Nc4cccc(F)c4)[nH]n3)ncnc2c1 [AZD2811] (first compound max 10 µM, 7x7, partner max 1 µM)
0.331

Measured values drawn from the supplement of paper PMC11061612 for this set.
